System: MCF7
Assay: Antiproliferative activity against human MCF7 cells after 72 hrs by MTT assay
Type: functional, cell-based
Settings: MCF7, 72 h
pIC50: −log10 of the molar value.

structureNotation	systemName	ltGtEq	pIC50
COc1ccc2c(c1)CC[C@H]1[C@@H]3[C@H](n4cc(-c5ccccc5)nn4)C[C@H](O)[C@@]3(C)CC[C@H]21	MCF7	<	4.52
CC(=O)O[C@H]1CC[C@@]2(C)[C@@H](CC[C@H]3[C@@H]4[C@H](n5cc(-c6ccc(F)cc6)nn5)CC(=O)[C@@]4(C)CC[C@@H]32)C1	MCF7	=	5.47
CCCc1ccc(-c2cn([C@@H]3CC(=O)[C@@]4(C)CC[C@H]5[C@@H](CC[C@H]6C[C@@H](OC(C)=O)CC[C@@]65C)[C@H]34)nn2)cc1	MCF7	=	5.08
CC(=O)O[C@H]1CC[C@@]2(C)[C@@H](CC[C@H]3[C@@H]4[C@H](n5cc(-c6ccc(C)cc6)nn5)C[C@H](O)[C@@]4(C)CC[C@@H]32)C1	MCF7	=	4.99
CCCc1ccc(-c2cn([C@@H]3C[C@H](O)[C@@]4(C)CC[C@H]5[C@@H](CC[C@H]6C[C@@H](OC(C)=O)CC[C@@]65C)[C@H]34)nn2)cc1	MCF7	<	4.52
CC(=O)O[C@H]1CC[C@@]2(C)[C@@H](CC[C@H]3[C@@H]4[C@H](n5cc(-c6ccccc6)nn5)CC(=O)[C@@]4(C)CC[C@@H]32)C1	MCF7	=	5.77
CC(=O)O[C@H]1CC[C@@]2(C)[C@@H](CC[C@H]3[C@@H]4[C@H](n5cc(-c6ccc(C)cc6)nn5)CC(=O)[C@@]4(C)CC[C@@H]32)C1	MCF7	=	5.57
CC(=O)O[C@H]1CC[C@@]2(C)[C@@H](CC[C@H]3[C@@H]4[C@H](n5cc(-c6ccc(F)cc6)nn5)C[C@H](O)[C@@]4(C)CC[C@@H]32)C1	MCF7	<	4.52
CC(=O)O[C@H]1CC[C@@]2(C)[C@@H](CC[C@H]3[C@@H]4[C@H](n5cc(-c6ccccc6)nn5)C[C@H](O)[C@@]4(C)CC[C@@H]32)C1	MCF7	=	4.72
COc1ccc2c(c1)CC[C@H]1[C@@H]3[C@H](n4cc(-c5ccccc5)nn4)CC(=O)[C@@]3(C)CC[C@H]21	MCF7	=	4.95
